Below: a set of entries, each annotated with reported Plant response rating, Velvetleaf.
- System: velvetleaf (Abutilon theophrasti)
- protocol: Test C pre-/postemergence: velvetleaf
- Format: in vivo
- condition_set: Preemergence, 62 g ai/ha; scale of 0 to 100, 0 is no effect, 100 is complete control

# compound, measured
records = [
    ("Cc1nn(-c2ccc(C(F)(F)F)cc2)nc1Oc1ccnc(C(F)(F)F)c1 [Compound 120]", 15),
    ("COc1nn(-c2cccc(F)c2)nc1Cc1ccnc(C(F)(F)F)c1 [Compound 139]", 10),
    ("FC(F)(F)COc1nn(-c2ccc(C(F)(F)F)cc2)nc1Cc1ccnc(C(F)(F)F)c1 [Compound 14]", 10),
    ("CCOc1nn(-c2ccc(Cl)cc2)nc1Cc1ccnc(C(F)(F)F)c1 [Compound 188]", 65),
    ("CCc1nn(-c2ccc(F)c(F)c2)nc1Oc1ccnc(C(F)(F)F)c1 [Compound 171]", 25),
]

## Input What value of Plant response rating, Velvetleaf has been reported for the following compound? Fc1ccc(-n2nc(Cc3ccnc(C(F)(F)F)c3)c(OC(F)F)n2)cc1 [Compound 25]
## Output 5

## Input What value of Plant response rating, Velvetleaf has been reported for the following compound? Cc1nn(-c2ccc(C(F)(F)F)c(F)c2)nc1Oc1ccnc(C(F)(F)F)c1 [Compound 148]
## Output 55

## Input What value of Plant response rating, Velvetleaf has been reported for the following compound? COc1nn(-c2ccc(C(F)(F)F)cc2)nc1Cc1ccnc(C(F)(F)F)c1 [Compound 15]
## Output 20

## Input What value of Plant response rating, Velvetleaf has been reported for the following compound? FC(F)Oc1nn(-c2ccc(C(F)(F)F)cc2)nc1Cc1ccnc(C(F)(F)F)c1 [Compound 26]
## Output 35

* * *

- System: johnsongrass (Sorghum halepense)
- protocol: Test C pre-/postemergence: johnsongrass
- Type: in vivo
- condition_set: Preemergence, 62 g ai/ha; scale of 0 to 100, 0 is no effect, 100 is complete control
- Excerpt: […] Treated plants and controls were maintained in a greenhouse for 13 to 15 days, after which time all species were compared to controls and visually evaluated. […]
Below: a set of entries, each annotated with reported Plant response rating, Johnsongrass.

Solved entries (count: 8):
# compound, target_desc, Plant response rating, Johnsongrass
records = [
    ("Cc1nn(-c2ccc(C(F)(F)F)cn2)nc1Oc1ccnc(C(F)(F)F)c1 [Compound 23]", "johnsongrass (Sorghum halepense)", 75),
    ("CCc1nn(-c2ccc(F)c(F)c2)nc1Oc1ccnc(C(F)(F)F)c1 [Compound 171]", "johnsongrass (Sorghum halepense)", 25),
    ("CCCc1nn(-c2ccc(C(F)(F)F)cc2)nc1Oc1ccnc(C(F)(F)F)c1 [Compound 170]", "johnsongrass (Sorghum halepense)", 75),
    ("CCOc1nn(-c2ccc(C(F)(F)F)cc2)nc1Cc1ccnc(C(F)(F)F)c1 [Compound 164]", "johnsongrass (Sorghum halepense)", 15),
    ("CCc1nn(-c2ccc(C(F)(F)F)c(F)c2)nc1Oc1ccnc(C(F)(F)F)c1 [Compound 183]", "johnsongrass (Sorghum halepense)", 35),
    ("CCOc1nn(-c2ccc(Cl)cc2)nc1Cc1ccnc(C(F)(F)F)c1 [Compound 188]", "johnsongrass (Sorghum halepense)", 85),
    ("CCc1nn(-c2ccc(F)cc2)nc1Cc1ccnc(C(F)(F)F)c1 [Compound 154]", "johnsongrass (Sorghum halepense)", 40),
    ("Fc1ccc(-n2nc(Cc3ccnc(C(F)(F)F)c3)c(OC(F)F)n2)cc1 [Compound 25]", "johnsongrass (Sorghum halepense)", 30),
]

## Input What value of Plant response rating, Johnsongrass has been reported for the following compound? COc1nn(-c2ccc(C(F)(F)F)cc2)nc1Cc1ccnc(C(F)F)c1 [Compound 138]
## Output 85

## Input What value of Plant response rating, Johnsongrass has been reported for the following compound? Cc1nn(-c2ccc(C(F)(F)F)c(F)c2)nc1Oc1ccnc(C(F)(F)F)c1 [Compound 148]
## Output 80

* * *

Below: a set of entries, each annotated with reported Plant response rating, Ragweed.
- System: ragweed (common ragweed, Ambrosia elatior)
- protocol: Test F pre-/postemergence: ragweed
- Type: in vivo
- condition_set: Preemergence; 125 g ai/ha; scale 0 to 100
- From the text: […] Treated plants and controls were maintained in a greenhouse for 14 to 21 days, after which time all species were compared to controls and visually evaluated. […]

# compound, Plant response rating, Ragweed
rows = [
    ("CCc1nn(-c2ccc(C(F)(F)F)cc2)nc1Cc1ccnc(C(F)(F)F)c1 [Compound 155]", 50),
]

## Input Could you share what Plant response rating, Ragweed was measured for Cc1nn(-c2ccc(F)cc2F)nc1Oc1ccnc(C(F)(F)F)c1 [Compound 146] , tested on ragweed (common ragweed, Ambrosia elatior)?
## Output 0

## Input Could you share what Plant response rating, Ragweed was measured for Cc1nn(-c2ccc(C(F)(F)F)c(F)c2)nc1Oc1ccnc(C(F)(F)F)c1 [Compound 148] , tested on ragweed (common ragweed, Ambrosia elatior)?
## Output 75

## Input Could you share what Plant response rating, Ragweed was measured for COc1nn(-c2cccc(F)c2)nc1Cc1ccnc(C(F)(F)F)c1 [Compound 139] , tested on ragweed (common ragweed, Ambrosia elatior)?
## Output 0

## Input Could you share what Plant response rating, Ragweed was measured for CCOc1nn(-c2ccc(F)cc2)nc1Cc1ccnc(C(F)(F)F)c1 [Compound 196] , tested on ragweed (common ragweed, Ambrosia elatior)?
## Output 50

* * *

- Test system: sedge, umbrella (small-flower umbrella sedge, Cyperus difformis)
- protocol: Test C flooded paddy test: sedge, umbrella
- Assay type: in vivo
- condition_set: Flood, 62 g ai/ha; scale 0 to 100 (0 no effect, 100 complete control)
# note: boundary value 40 maps to no (0); Plant response rating, Sedge, Umbrella below it maps to yes (1)

Please review the following examples before continuing.
# compound, qualitative_label
measured = [
    ("Cc1nn(-c2ccc(C(F)(F)F)cc2)nc1Cn1cnc(C(F)(F)F)c1 [Compound 96]", "no (0)"),
    ("Cc1nn(-c2ccc(C(F)(F)F)cc2)nc1Oc1cccc(C(F)(F)F)c1 [Compound 111]", "no (0)"),
    ("Cc1nn(-c2ccc(C(F)(F)F)cn2)nc1Cc1cccc(C(F)(F)F)c1 [Compound 106]", "no (0)"),
    ("CCc1nn(-c2ccc(C(F)(F)F)cc2)nc1Cn1nc(C(F)(F)F)cc1C [Compound 131]", "yes (1)"),
    ("Cc1nn(-c2ccc(F)cc2)nc1Cn1cnc(C(F)(F)F)n1 [Compound 94]", "no (0)"),
]

## Input Item Cc1nn(-c2ccc(C(F)(F)F)cc2)nc1Sc1cccc(C(F)(F)F)c1 [Compound 88] : Plant response rating, Sedge, Umbrella beneath 40, strictly?
## Output yes (1)

## Input Item CCc1nn(-c2ccc(C(F)(F)F)cc2)nc1Cn1cnc(C(F)(F)F)c1 [Compound 133] : Plant response rating, Sedge, Umbrella beneath 40, strictly?
## Output yes (1)

## Input Item FC(F)(F)c1ccc(-n2nc(Br)c(Cc3cccc(C(F)(F)F)c3)n2)cc1 [Compound 123] : Plant response rating, Sedge, Umbrella beneath 40, strictly?
## Output yes (1)

## Input Item Cc1nn(-c2ccc(F)cc2)nc1Oc1cccc(C(F)(F)F)c1 [Compound 98] : Plant response rating, Sedge, Umbrella beneath 40, strictly?
## Output yes (1)

* * *

Below: a set of entries, each annotated with reported Plant response rating, Wheat.
- Test system: winter wheat (Triticum aestivum)
- protocol: Test C pre-/postemergence: winter wheat
- Type: in vivo
- condition_set: Postemergence, 125 g ai/ha; scale 0 to 100, 0 no effect, 100 complete control

Solved entries (count: 5):
# compound, Plant response rating, Wheat
measured = [
    ("CCCc1nn(-c2ccc(F)cc2F)nc1Oc1ccnc(C(F)(F)F)c1 [Compound 179]", 15),
    ("CCOc1nn(-c2ccc(Cl)cc2)nc1Cc1ccnc(C(F)(F)F)c1 [Compound 188]", 45),
    ("FC(F)(F)COc1nn(-c2ccc(C(F)(F)F)cc2)nc1Cc1ccnc(C(F)(F)F)c1 [Compound 14]", 40),
    ("CCc1nn(-c2ccc(F)cc2)nc1Cc1ccnc(C(F)(F)F)c1 [Compound 154]", 20),
    ("CCc1nn(-c2ccc(C(F)(F)F)cc2)nc1Cc1ccnc(C(F)(F)F)c1 [Compound 155]", 35),
]

## Input What value of Plant response rating, Wheat has been reported for the following compound? Cc1nn(-c2ccc(C(F)(F)F)cn2)nc1Oc1ccnc(C(F)(F)F)c1 [Compound 23]
## Output 15

## Input What value of Plant response rating, Wheat has been reported for the following compound? CCc1nn(-c2ccc(F)c(F)c2)nc1Oc1ccnc(C(F)(F)F)c1 [Compound 171]
## Output 20

## Input What value of Plant response rating, Wheat has been reported for the following compound? CCc1nn(-c2ccc(C(F)(F)F)c(F)c2)nc1Oc1ccnc(C(F)(F)F)c1 [Compound 183]
## Output 20
